# tested system: Mineralocorticoid receptor (Homo sapiens, UniProt P08235)
# Sequence (P08235 whole entry): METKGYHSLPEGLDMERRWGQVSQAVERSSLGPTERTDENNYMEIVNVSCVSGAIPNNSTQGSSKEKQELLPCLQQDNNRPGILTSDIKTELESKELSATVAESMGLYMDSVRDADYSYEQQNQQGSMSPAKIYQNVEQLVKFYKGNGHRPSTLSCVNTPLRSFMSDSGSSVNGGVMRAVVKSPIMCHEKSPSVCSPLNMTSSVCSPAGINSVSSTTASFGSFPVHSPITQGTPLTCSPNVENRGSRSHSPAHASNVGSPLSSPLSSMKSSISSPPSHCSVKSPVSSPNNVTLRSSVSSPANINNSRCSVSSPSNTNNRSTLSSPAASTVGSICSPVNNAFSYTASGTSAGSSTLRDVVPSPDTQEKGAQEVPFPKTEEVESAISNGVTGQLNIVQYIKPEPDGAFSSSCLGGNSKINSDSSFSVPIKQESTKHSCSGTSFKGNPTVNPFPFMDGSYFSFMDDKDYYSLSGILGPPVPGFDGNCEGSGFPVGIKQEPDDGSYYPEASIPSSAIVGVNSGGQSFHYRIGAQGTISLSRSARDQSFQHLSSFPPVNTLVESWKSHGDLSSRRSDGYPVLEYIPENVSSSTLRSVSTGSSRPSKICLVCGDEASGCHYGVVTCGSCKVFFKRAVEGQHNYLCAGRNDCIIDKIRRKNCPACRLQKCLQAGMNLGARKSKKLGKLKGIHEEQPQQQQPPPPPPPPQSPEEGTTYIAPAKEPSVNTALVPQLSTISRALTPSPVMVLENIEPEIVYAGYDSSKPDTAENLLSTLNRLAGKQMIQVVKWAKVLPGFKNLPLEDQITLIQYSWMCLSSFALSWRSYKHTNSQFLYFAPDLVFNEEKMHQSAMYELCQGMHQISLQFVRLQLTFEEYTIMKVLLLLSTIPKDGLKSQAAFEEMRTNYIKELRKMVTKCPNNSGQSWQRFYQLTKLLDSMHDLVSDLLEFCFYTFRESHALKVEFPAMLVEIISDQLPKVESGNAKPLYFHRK
pKi: −log10 of the molar value.
quantity: pKi

Form field - read-out: pKi; system: Mineralocorticoid receptor (Homo sapiens, UniProt P08235); submitted item: C[C@@H]1CC[C@H]([C@@H](O)C(F)(F)F)N1c1ccc2[nH]c(=O)cc(C(F)(F)F)c2c1 [LGD-2941]
< 5.00

// provenance: ChEMBL document CHEMBL1148826
